assay: melting temperature; fluorescence melt of hairpins on a sequencing array, two-state fit, raised by 9.35 °C to match UV melts; conditions: sodium 0.088 M
// class assignment uses Tm with these ranges: bottom range: < 40 °C; center range: ≥ 40 °C and < 50 °C; top range: ≥ 50 °C

# biosequence, assigned_label
measured = [
    ("GTGGTGGGAAACCATCGC (.(.(((....))).).)", "center range"),
    ("GCGGCAGGAAACTGTCGC (((.(((....))).)))", "top range"),
    ("GATCGCCCAGGCGATC ((((((....))))))", "top range"),
    ("GTGTGAGGAAACTCATAC ((.((((....)))).))", "center range"),
    ("GTGAATGAAAATTCAC ((((((....))))))", "top range"),
    ("GACGCGCCGAAAGGCGTC (((..(((....))))))", "bottom range"),
    ("GATTAACCGAAAGGTATC (((..(((....))))))", "bottom range"),
    ("GATCTAGATTTAGATC ((((((....))))))", "bottom range"),
    ("GATCCGTTTGCGGATC ((((((....))))))", "top range"),
    ("GATGCGCGAAAGCGAATC (((.(((....))).)))", "top range"),
    ("GCGAGGCGAAAGCGTTGC ((.(.((....)).).))", "top range"),
    ("GAGGCGGGAAACTGCCTC (((((.(....).)))))", "top range"),
    ("GGGACCGAAAGGTATCCC ((((((....)))..)))", "center range"),
    ("GATCACAAAGGTGATC ((((((....))))))", "top range"),
    ("GACGGCCGAAAGGCGTC (((.(((....))))))", "top range"),
    ("GAGCGCGAAAGCGTACTC ((((((....)))..)))", "center range"),
    ("GTTCACGAAAGTGGGAAC ((((((....)))..)))", "bottom range"),
    ("GCTTTCGAAAGAAGCAGC ((((((....)))..)))", "bottom range"),
    ("GTTTTGGGAAACTAAGAC ((.((.(....).)).))", "bottom range"),
    ("GATCCAAAGGTGGATC ((((((....))))))", "center range"),
    ("GAACCAGAAATGGTTC ((((((....))))))", "top range"),
    ("GCCGATGGAAACATCGAC (.(((((....))))).)", "center range"),
    ("GCATTGCGAAAGCCAAGC ((.(.((....)).).))", "bottom range"),
    ("GTGTGGGAAACCACAC ((((((....))))))", "top range"),
    ("GATCGGGTCGCCGATC ((((((....))))))", "top range"),
    ("GCAACCGAAAGGTCTTGC ((((((....)))..)))", "bottom range"),
    ("GATCGGTAGCCCGATC ((((((....))))))", "top range"),
    ("GGGTTCGAAAGAACACCC ((((((....)))..)))", "top range"),
    ("GTGAACGAAAGTTCAC ((((((....))))))", "top range"),
    ("GCGCGCGGAAACGCGCAC (.(((((....))))).)", "top range"),
    ("GAGAATCCGAAAGGACTC (((..(((....))))))", "bottom range"),
    ("GCAATCTCGAAAGAGTGC (((..(((....))))))", "center range"),
    ("GGGATGGCGAAAGCCCCC (((..(((....))))))", "center range"),
    ("GTGGTAGGAAACTACTAC ((.((((....)))).))", "center range"),
    ("GATCGGGTCCCGATC ((((((...))))))", "top range"),
    ("GATCTGACTCAGATC ((((((...))))))", "center range"),
]

The measured values listed here are drawn from the array DNA melting data of Ke et al. (doi:10.1101/2024.01.08.574731).
